- System: CCRIS mutagenicity, Ames/micronucleus/aberration tests
- measurementDescription: CCRIS mutagenicity studies
- measurementParameters: Test System: AMES SALMONELLA TYPHIMURIUM; Strain/Indicator: TA98; Metabolic Activation: NONE; Method: PREINCUBATION
Calls of active or inactive are those of the source. How the calls were made is not given here.
Classes used: Y (active), N (inactive)

| compound | answerLabel |
| --- | --- |
| CNc1ccc2ncccc2c1N | N |
| ClCc1ccc(Cl)cc1 | N |
| CCCCC1C(=O)N(c2ccccc2)N(c2ccccc2)C1=O | N |
| O=[N+]([O-])/C=C/c1ccc([N+](=O)[O-])o1 | Y |
| COc1cc(NCCCCCNC(C)C)c2ncccc2c1 | N |
| CC(CO)[N+](=O)[O-] (stereo not given) | N |
| CC1CS1 (stereo not given) | N |
| Cc1ccc2c([N+](=O)[O-])cccc2c1 | Y |
| CCCCCCC[CH2][Sn]([CH2]CCCCCCC)([S]CC(=O)OCCCCCC(C)C)[S]CC(=O)OCCCCCC(C)C | N |
| C=CC(=O)OCCCCCCOC(=O)C=C | N |
| C1CN(SSN2CCOCC2)CCO1 | N |
| CCC(O)CN (stereo not given) | N |
| Nc1ccc([N+](=O)[O-])cc1[N+](=O)[O-] | Y |
| Oc1c(Br)cc(Br)cc1Br | N |
| NCCNCCNCCN | Y |

====

- Tested on: CCRIS mutagenicity, Ames/micronucleus/aberration tests
- measurementDescription: CCRIS mutagenicity studies
- measurementParameters: Test System: AMES SALMONELLA TYPHIMURIUM; Strain/Indicator: TA98; Metabolic Activation: RAT, LIVER, S-9, AROCLOR 1254; Method: STANDARD PLATE
- From the text: The CCRIS database contains chemical records with carcinogenicity, mutagenicity, tumor promotion, and tumor inhibition test results. It was developed by the National Cancer Institute (NCI). Data are derived from studies cited in primary journals, current awareness tools, NCI reports, and other sources. Test results have been reviewed by experts in carcinogenesis and mutagenesis. CCRIS provides historical information from the years 1985 - 2011. It is no longer updated. […]
Activity calls are given as the source filed them. How the calls were made is not given here.
Classes used: active, inactive

| compound | answerLabel |
| --- | --- |
| CC(=O)N(O)c1ccc(Cl)cc1 | inactive |
| O=C1CCC(N2C(=O)c3ccccc3C2=O)C(=O)N1 (centres undefined) | inactive |
| CC(C)(C)NCC(O)COc1cccc2c1CC(O)C(O)C2 (centres undefined) | inactive |
| C=C(C)c1ccc(C)c2ccc(C=O)c-2c1 | active |
| O=C(/C=C/c1ccccc1)c1ccc(O)cc1 | inactive |
| CCOC(=O)CC(=O)CCl | inactive |
| O[C@@H]1C=Cc2ccc3c(ccc4ccccc43)c2[C@H]1O | active |
| CC/C=C\C/C=C\C/C=C\CCCCCCCC(=O)O | inactive |
| C1CCC(C2(C3CCCCC3)COCCOCCOCCOCCOCCOCCO2)CC1 | inactive |
| C=C(C)OC(C)=O | inactive |
| Cc1cc(O)cc2oc(=O)c3c(O)cc(O)cc3c12 | inactive |
| O=[N+]([O-])c1ccc2c3cccc4cccc(c5c([N+](=O)[O-])ccc1c25)c43 | active |
| COCCO | inactive |
| OCCNc1ccc(N=Nc2ccc(N(CCO)CCO)cc2)cc1 | inactive |
| C=CC(=O)OC | inactive |
| Nc1cc2nc3ccccc3nc2cc1N | active |
| C=C1CC/C=C(/C)CC[C@@H]2[C@@H]1CC2(C)C | inactive |
| CCCO | inactive |
| O=C(/C=C/c1ccc(Oc2ccccc2)cc1)c1ccccc1 | inactive |
| CNc1ccnc(-c2cc(N(C)C)ccn2)c1.CNc1ccnc(-c2cc(N(C)C)ccn2)c1.F[P-](F)(F)(F)(F)F.F[P-](F)(F)(F)(F)F.F[P-](F)(F)(F)(F)F.F[P-](F)(F)(F)(F)F.[NH3+]Cc1ccnc(-c2cc(C[NH3+])ccn2)c1.[Os+2] | inactive |
| CNC(=O)c1cccc2c(Nc3ccc(NS(C)(=O)=O)cc3OC)c3cccc(C)c3nc12 | inactive |
| Cn1ccc2c3c(ccc4ccc(O)cc43)ccc21 | inactive |
| NC(=O)CCC(=O)Nc1ccc(Cl)c(Cl)c1 | inactive |
| O=[N+]([O-])c1c2c(c3ccc4cccc5ccc1c3c45)C=CCC2 | inactive |

Data provenance: PubChem BioAssay AID1259407
